- test_method_notes: Pharmacokinetic study in rats after oral and intravenous administration of PTD (UPLC-MS/MS, plasma)
- Type: in vivo
- experimental_setup: Sprague-Dawley; rat plasma, intravenous administration of PTD 9.1 mg/kg
So I've got a bunch of molecules here, and I need their AUC(0-inf) values.
Numeric only. Scale: ng·h/mL

Fill blank: measured AUC(0-inf) of the molecule OCC1OC(Oc2ccc3c(c2)OCC(O)(CO)Cc2cc(O)c(O)cc2-3)C(O)C(O)C1O [PTD, protosappanin B-3-O-β-D-glucoside] is ____.
19700

What would you report for OCC1(O)COc2cc(O)ccc2-c2cc(O)c(O)cc2C1 (centres unmarked) [PTB, protosappanin B, reference compound] ?
230

* * *

- test_method_notes: Pharmacokinetic study in rats after oral and intravenous administration of PTD (UPLC-MS/MS, plasma)
- Format: in vivo
- experimental_setup: Sprague-Dawley; rat plasma, intravenous administration of PTD 9.1 mg/kg; read-out: MRT(0–t)
readout_name: MRT last (h)
Numeric answer only, unit h assumed.

# input compound: OCC1OC(Oc2ccc3c(c2)OCC(O)(CO)Cc2cc(O)c(O)cc2-3)C(O)C(O)C1O [PTD, protosappanin B-3-O-β-D-glucoside] ; wanted: its MRT last
1.8

Would you mind doing OCC1(O)COc2cc(O)ccc2-c2cc(O)c(O)cc2C1 (centres unmarked) [PTB, protosappanin B, reference compound] as well?
6.45

* * *

- test_method_notes: Pharmacokinetic study in rats after oral and intravenous administration of PTD (UPLC-MS/MS, plasma)
- Format: in vivo
- experimental_setup: Sprague-Dawley, rat, plasma, oral, 27.3 mg/kg, rat, oral 27.3 mg/kg vs intravenous 9.1 mg/kg
readout_name: bioavailability (%)
Enter your answer as a number in %; do not include the unit.

bioavailability for OCC1OC(Oc2ccc3c(c2)OCC(O)(CO)Cc2cc(O)c(O)cc2-3)C(O)C(O)C1O [PTD, protosappanin B-3-O-β-D-glucoside] ?
0.65
